Provenance of the data: patent US20230406921A1

Examples of binders with documented FACS (MFI) follow.
Biological target: T1, CD47 on the surface of human red blood cells (human, UniProt Q08722 19-323)
T1 construct: whole, on cells; Same protein as m3, on red blood cells; also called hRBC; RBC
Test: FACS, hRBC, 500 nM
Report only the number, with the unit MFI understood.

Sample answers from the record:
[[record]]
binder = "h140Hm13/h140Lm4 (antibody, V domains shown) VH: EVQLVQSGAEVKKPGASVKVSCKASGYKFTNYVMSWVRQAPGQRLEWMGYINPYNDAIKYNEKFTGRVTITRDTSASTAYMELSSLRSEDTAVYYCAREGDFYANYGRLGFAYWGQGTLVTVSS VL: DIQMTQSPSSLSASVGDRVTITCRASQDITNYLNWYQQKPGKAPKLLIYYTSRLHSGVPSRFSGSGSGTDYTFTISSLQPEDFATYFCQQGDTFPRTFGGGTKVEIK"
recorded_result = 24200

[[record]]
binder = "h140Hm13/h140Lm1 (antibody, V domains shown, also called h140Lml) VH: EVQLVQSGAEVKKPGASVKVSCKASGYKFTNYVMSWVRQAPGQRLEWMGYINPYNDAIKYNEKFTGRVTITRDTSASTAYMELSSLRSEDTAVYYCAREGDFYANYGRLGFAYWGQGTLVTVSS VL: DIQMTQSPSSLSASVGDRVTITCRASQDISNYLNWYQQKPGKAPKLLIYYTSRLHSGVPSRFSGSGSGTDYTFTISSLQPEDIATYFCQQGDTFPRTFGGGTKVEIK"
recorded_result = 28700

[[record]]
binder = "h140Hm13/h140L (antibody, V domains shown, Heavy chain mutant 140Hm13 with the unmutated light chain of hz140) VH: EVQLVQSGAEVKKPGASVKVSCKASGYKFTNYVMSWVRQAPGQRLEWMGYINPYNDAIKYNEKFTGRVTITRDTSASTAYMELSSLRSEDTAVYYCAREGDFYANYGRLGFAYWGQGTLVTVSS VL: DIQMTQSPSSLSASVGDRVTITCRASQDITNYLNWYQQKPGKAPKLLIYYTSRLHSGVPSRFSGSGSGTDYTFTISSLQPEDIATYFCQQGDTFPRTFGGGTKVEIK"
recorded_result = 27400

[[record]]
binder = "h140Hm13/h140Lm6 (antibody, V domains shown) VH: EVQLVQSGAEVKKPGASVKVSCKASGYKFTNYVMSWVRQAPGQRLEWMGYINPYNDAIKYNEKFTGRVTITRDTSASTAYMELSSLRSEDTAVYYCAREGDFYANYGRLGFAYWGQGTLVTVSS VL: DIQMTQSPSSLSASVGDRVTITCRASQDITNYLNWYQQKPGKAPKLLIYYTSRLHSGVPSRFSGSGSGTDYTFTISSLQPEDIATYFCQQGDGFPRTFGGGTKVEIK"
recorded_result = 27200

[[record]]
binder = "h140Hm13/h140Lm9 (antibody, V domains shown, also called h140Lmut9; mut9) VH: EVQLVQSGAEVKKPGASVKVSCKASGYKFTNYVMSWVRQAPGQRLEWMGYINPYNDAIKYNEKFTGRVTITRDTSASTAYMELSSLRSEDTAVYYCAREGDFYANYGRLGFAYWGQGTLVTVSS VL: DIQMTQSPSSLSASVGDRVTITCRASQDITNYLNWYQQKPGKAPKLLIYYTSRLHSGVPSRFSGSGSGTDYTFTISSLQPEDIATYFCQQGAGRPRTFGGGTKVEIK"
recorded_result = 17700


Now for another entry.
# lookup: FACS (MFI) of h140Hm13/h140Lm5 (antibody, V domains shown) VH: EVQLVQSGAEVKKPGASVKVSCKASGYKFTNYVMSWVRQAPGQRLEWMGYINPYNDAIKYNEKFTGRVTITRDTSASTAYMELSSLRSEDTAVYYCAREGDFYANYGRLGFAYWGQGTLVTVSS VL: DIQMTQSPSSLSASVGDRVTITCRASQDITNYLNWYQQKPGKAPKLLIYYTSRLHSGVPSRFSGSGSGTDYTFTISSLQPEDIATYFCQQGATFPRTFGGGTKVEIK 27300
